Target or system: Estrogen receptor (Homo sapiens) (UniProt P03372)
Sequence (P03372 whole entry, looked up): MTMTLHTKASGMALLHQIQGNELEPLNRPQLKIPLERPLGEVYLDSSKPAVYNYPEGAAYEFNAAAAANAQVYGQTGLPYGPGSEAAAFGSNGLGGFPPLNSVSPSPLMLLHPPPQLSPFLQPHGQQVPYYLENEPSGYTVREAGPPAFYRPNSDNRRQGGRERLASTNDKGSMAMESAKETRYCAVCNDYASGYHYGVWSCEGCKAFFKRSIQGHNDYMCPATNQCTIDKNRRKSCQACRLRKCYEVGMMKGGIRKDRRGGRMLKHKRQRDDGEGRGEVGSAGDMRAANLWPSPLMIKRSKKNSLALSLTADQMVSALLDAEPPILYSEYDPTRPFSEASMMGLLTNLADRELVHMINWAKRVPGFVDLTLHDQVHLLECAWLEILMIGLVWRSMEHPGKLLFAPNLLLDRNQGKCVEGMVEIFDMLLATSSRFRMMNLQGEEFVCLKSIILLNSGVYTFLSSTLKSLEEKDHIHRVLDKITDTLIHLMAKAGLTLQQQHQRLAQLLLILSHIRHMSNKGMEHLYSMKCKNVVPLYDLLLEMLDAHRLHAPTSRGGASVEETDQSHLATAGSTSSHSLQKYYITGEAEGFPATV
Assay remarks: qHTS assay to identify small molecule agonists of the estrogen receptor alpha (ER-alpha) signaling pathway in the presence of an antagonist (AID 1259383); also: top concentration of the series differs between compounds; nearly all actives have a fitted effect of over 15% in size
Assay conditions: VM7Luc4E2 cells, ERE-luciferase, +ICI-182,780, 22 h; series mostly up to 92.4 µM
The source made the active and inactive calls. Calls follow the shape of the full dose curve.
Endpoint name: outcome

[[record]]
compound = "CC1(C)Cc2cccc(O)c2O1"
target_or_system = "Estrogen receptor (Homo sapiens) (UniProt P03372)"
reading = "inactive"

[[record]]
compound = "CCOS(=O)(=O)OCC"
target_or_system = "Estrogen receptor (Homo sapiens) (UniProt P03372)"
reading = "inactive"

[[record]]
compound = "Cn1c(-c2ccccc2)cc(-c2ccccc2)[n+]1C"
target_or_system = "Estrogen receptor (Homo sapiens) (UniProt P03372)"
reading = "inactive"

[[record]]
compound = "CC(C)(c1ccccc1)c1ccc(O)c(C(C)(C)c2ccccc2)c1"
target_or_system = "Estrogen receptor (Homo sapiens) (UniProt P03372)"
reading = "inactive"

[[record]]
compound = "CC(C)CON=O"
target_or_system = "Estrogen receptor (Homo sapiens) (UniProt P03372)"
reading = "inactive"

[[record]]
compound = "Nc1ccc2ccccc2c1"
target_or_system = "Estrogen receptor (Homo sapiens) (UniProt P03372)"
reading = "inactive"

[[record]]
compound = "O=C(O)CF"
target_or_system = "Estrogen receptor (Homo sapiens) (UniProt P03372)"
reading = "inactive"

[[record]]
compound = "CCCCCCCCCCCCCl"
target_or_system = "Estrogen receptor (Homo sapiens) (UniProt P03372)"
reading = "inactive"


## Input Which measured outcome value corresponds to COc1ccc(O)c(C(C)(C)C)c1 ?
## Output inactive

## Input Now this one: O=C(O)c1nn(Cc2ccc(Cl)cc2Cl)c2ccccc12
## Output inactive

## Input Next up: CC(C)=CC1C(C(=O)OCc2cccc(Oc3ccccc3)c2)C1(C)C (configuration not stated)
## Output inactive

## Input One more compound: N#Cc1cccnc1
## Output inactive

## Input And Oc1ccc(Cl)cc1Cl ?
## Output inactive

## Input Subsequent entry: COP(=S)(OC)Oc1ccc(Sc2ccc(OP(=S)(OC)OC)cc2)cc1
## Output inactive

## Input Again, but for ClC(Cl)(Cl)c1ccccc1
## Output inactive

## Input What do we get for CCCCCCCCCc1ccc(O)cc1 ?
## Output inactive

## Input Now the same for c1ccc2c(c1)Nc1ccccc1S2
## Output inactive

## Input Entry to check: CC[n+]1c(-c2ccccc2)c2cc(N)ccc2c2ccc(N)cc21
## Output inactive

---

Assay remarks: qHTS assay to identify small molecule antagonists of the androgen receptor (AR) signaling pathway - cell viability counter screen (AID 743033; also: nearly all actives have a fitted effect of over 45% in size)
Assay conditions: AR-bla HEK293 viability, CellTiter-Glo luminescence, 16 h; series mostly up to 58.5 µM
Inconclusive results are not listed. Activity calls are given as the source filed them. Calls follow the shape of the dose curve; as a rule, active = well fitted cell-killing curve with a large enough effect in the repeat runs; inconclusive = weak or mixed curves; inactive = no such curve, though single readings can be large or run the other way.
Result category, one only: t for active, f for inactive

Consider the following illustrative entries.
[[record]]
compound = "Nc1ccc2ccccc2c1"
group_label = "f"

[[record]]
compound = "ClC(Cl)(Cl)c1ccccc1"
group_label = "f"

[[record]]
compound = "O=NN1CCOCC1"
group_label = "f"

[[record]]
compound = "N#Cc1nn(-c2c(Cl)cc(C(F)(F)F)cc2Cl)c(N)c1S(=O)C(F)(F)F (configuration not stated)"
group_label = "t"

[[record]]
compound = "CCC(=O)Nc1ccc(Cl)c(Cl)c1"
group_label = "f"

[[record]]
compound = "ClCc1ccccn1"
group_label = "f"


## Input How was C[C@]12CC[C@H]3[C@@H](CCC4=CC(=O)CC[C@@H]43)[C@@H]1CC[C@@H]2O classified in this test?
## Output f
